Would you kindly list protein stability index for each of these variants?
B1: USP39 (parent)
chain: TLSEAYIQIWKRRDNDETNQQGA

variants of: B1; test: protein stability index of a GFP-peptide fusion (GPS, HEK-293T) (PSI 1-6); higher = more stable; details: c terminus: native;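 note: lentivirally expressed fusions sorted by FACS into six bins by GFP to DsRed ratio, PSI derived from sequencing read proportions per bin multiplied by bin number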
Numbers only.

Answered cases to consult:
G22T : 3.66
T18D : 1.95
T1E : 2.59

# batch size: 2; output protein stability index per entry
1. I9S
2. T18Y

result:
1: 2.8; 2: 2.51
